The values you see were collected from patent US20030068675.

Molecular target: ZFP SBS#249 (synthetic)
Sequence (chain, as listed by the source): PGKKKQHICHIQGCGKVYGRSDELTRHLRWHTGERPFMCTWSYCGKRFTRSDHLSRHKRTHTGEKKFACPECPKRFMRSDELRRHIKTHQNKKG
Test: EMSA
Settings: tags: MBP fusion
measured.quantity: Kd
Record the result as a number with its unit.

Problem: Item GCGGGGGCG (dsDNA) DNA 1: GCGGGGGCG DNA 2: CGCCCCCGC : provide Kd
Result: 20 nM
